- target: FGFR4 (Homo sapiens (Human))
- assayRemarks: FGFR Enzymatic Assay (FRET peptide phosphorylation), FGFR4
- Format: biochemical
- experimentalSetup: IC50 ratio showing FGFR4 selectivity; Table 2, pre-incubated for 4 hours
Would you mind telling me the reported FGFR1/FGFR4 of each entry?

Give FGFR1/FGFR4 for each of the items listed below.
1. COc1cc(OC)c(F)c(N2Cc3cnc(-c4cncc(CN5CCOCC5)c4)cc3C3(CC3)C2=O)c1F [Example 16]
2. COc1cc(OC)c(F)c(N2Cc3cnc(-c4cncc(NS(C)(=O)=O)c4)cc3C3(CC3)C2=O)c1F [Example 15]
3. COc1cc(OC)c(F)c(N2Cc3cnc(-c4cncc(S(=O)(=O)N5CCOCC5)c4)cc3C3(CC3)C2=O)c1F [Example 14]
4. COc1cc(OC)c(F)c(N2Cc3cnc(-c4nn(C)cc4C#N)cc3C3(CC3)C2=O)c1F [Example 172]
5. COc1cc(OC)c(F)c(N2Cc3cnc(-c4cncc(N)c4)cc3C3(CC3)C2=O)c1F [Example 4]
6. COc1cc(OC)c(F)c(N2Cc3cnc(-c4nn(CC5CCOCC5)cc4C#N)cc3C3(CC3)C2=O)c1F [Example 173]
7. COc1cc(OC)c(F)c(N2Cc3cnc(-c4cncc(C(=O)N5CCOCC5)c4)cc3C3(CC3)C2=O)c1F [Example 13]

1: >50; 2: >50; 3: >50; 4: >50; 5: >25; 6: >100; 7: >50

----------
Would you kindly list FGFR1/FGFR3 for each of these molecules?
- Test system: FGFR3 enzyme
- assayRemarks: FGFR Enzymatic Assay (FRET peptide phosphorylation), FGFR3
- Assay type: biochemical
- experimentalSetup: IC50 ratio showing FGFR3 selectivity; Table 2A, pre-incubated for 4 hours

CNC(=O)c1ccc(-c2cc3c(cn2)CN(c2c(F)c(OC)cc(OC)c2F)C(=O)C32CC2)cc1 [Example 19] :: >5
COc1cc(OC)c(F)c(N2Cc3cnc(-c4ccc(C5(C#N)CCC5)nc4)cc3N(Cc3nnc(C)o3)C2=O)c1F [Example 187] :: >10
COc1cc(OC)c(F)c(N2Cc3cnc(-c4cn(C)nc4C)cc3N(c3cnc(C)cn3)C2=O)c1F [Example 107] :: >3

Alright, here's another molecule for you.
Which FGFR1/FGFR3 is reported for this molecule? COc1cc(OC)c(F)c(N2Cc3cnc(-c4cc(N)cnc4C)cc3C3(CC3)C2=O)c1F [Example 7]
>1

----------
Hi there, I'd appreciate the recorded FGFR4/FGFR3 for every entry that follows.
- System: FGFR3 enzyme
- assayRemarks: FGFR Enzymatic Assay (FRET peptide phosphorylation), FGFR3
- Assay type: biochemical
- experimentalSetup: IC50 ratio showing FGFR3 selectivity; Table 2A, pre-incubated for 4 hours

Look over these answered cases.
COc1cc(OC)c(F)c(N2Cc3cnc(-c4cn(C)nc4C)cc3N(c3ccccc3F)C2=O)c1F :: >5
COc1cc(OC)c(F)c(N2Cc3cnc(-c4cnn(CC5CN(C(C)=O)C5)c4)cc3C3(CC3)C2=O)c1F :: >3

Value sought for every listed compound: FGFR4/FGFR3.
1. CCN1C(=O)N(c2c(F)c(OC)cc(OC)c2F)Cc2cnc(-c3ccc(N4CCOCC4)nc3)cc21
2. COc1cc(OC)c(F)c(N2Cc3cnc(-c4cn(C)nc4C)cc3N(c3cc(F)cc(C#N)c3)C2=O)c1F
3. COc1cc(OC)c(F)c(N2Cc3cnc(-c4cn(Cc5cccnc5)nc4C)cc3C3(CC3)C2=O)c1F

1. >5
2. >3
3. >1

Please supply FGFR4/FGFR3 for each of the following items, keeping them in order.
1. COc1cc(OC)c(F)c(N2Cc3cnc(-c4cnn(CC5CCCS(=O)(=O)N5)c4)cc3C3(CC3)C2=O)c1F (stereo not shown)
2. COc1cc(OC)c(F)c(N2Cc3cnc(-c4cn(C)nc4C)cc3N(Cc3ccc(F)cc3)C2=O)c1F

1. >1
2. >10

----------
- target: FGFR4 (Homo sapiens (Human), UniProt P22455)
- Sequence (P22455 22-802): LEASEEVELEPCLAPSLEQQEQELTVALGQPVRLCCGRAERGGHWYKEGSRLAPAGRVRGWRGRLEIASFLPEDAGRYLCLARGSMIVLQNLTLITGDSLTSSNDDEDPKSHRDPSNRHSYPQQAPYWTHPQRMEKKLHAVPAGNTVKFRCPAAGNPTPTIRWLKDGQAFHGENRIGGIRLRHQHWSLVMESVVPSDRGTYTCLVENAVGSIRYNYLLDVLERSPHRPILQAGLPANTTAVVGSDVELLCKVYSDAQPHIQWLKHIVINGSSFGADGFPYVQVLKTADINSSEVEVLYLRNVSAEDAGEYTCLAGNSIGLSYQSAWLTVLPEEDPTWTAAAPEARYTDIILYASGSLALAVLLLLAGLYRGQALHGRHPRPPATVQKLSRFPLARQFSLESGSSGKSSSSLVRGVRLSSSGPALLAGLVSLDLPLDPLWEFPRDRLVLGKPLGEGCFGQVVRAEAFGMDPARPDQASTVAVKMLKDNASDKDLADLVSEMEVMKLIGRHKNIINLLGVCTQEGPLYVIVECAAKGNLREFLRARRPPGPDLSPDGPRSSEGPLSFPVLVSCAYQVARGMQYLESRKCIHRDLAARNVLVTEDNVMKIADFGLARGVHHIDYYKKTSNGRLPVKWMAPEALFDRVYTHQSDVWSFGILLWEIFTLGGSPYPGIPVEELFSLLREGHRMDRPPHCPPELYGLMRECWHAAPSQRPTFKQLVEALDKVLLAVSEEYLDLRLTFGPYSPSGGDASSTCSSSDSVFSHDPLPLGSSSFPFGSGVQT
- assayRemarks: FGFR Enzymatic Assay (FRET peptide phosphorylation), FGFR4
- Format: biochemical
- experimentalSetup: ratio of IC50 data showing FGFR4 selectivity; Table 4, pre-incubated for 5 to 10 minutes
Please respond with reported FGFR3/FGFR4 for every item in the list.

Worked examples follow.
COc1cc(OC)c(F)c(N2Cc3cnc(-c4cc(N)ccc4C#N)cc3C3(CC3)C2=O)c1F :: >25
COc1cc(OC)c(F)c(N2Cc3cnc(-c4cc(N)ccc4C)cc3C3(CC3)C2=O)c1F :: >50
COc1cc(OC)c(F)c(N2Cc3cnc(-c4cncc(Cl)c4)cc3C3(CC3)C2=O)c1F :: >25
COc1cc(OC)c(F)c(N2Cc3cnc(-c4cncc(C#N)c4)cc3C3(CC3)C2=O)c1F :: >10
COc1cc(OC)c(F)c(N2Cc3cnc(-c4cccnc4)cc3C3(CC3)C2=O)c1F :: >1

Give FGFR3/FGFR4 for each of the items listed below.
1. COc1cc(OC)c(F)c(N2Cc3cnc(-c4cc(N)c(F)cc4C)cc3C3(CC3)C2=O)c1F
2. COc1cc(OC)c(F)c(N2Cc3cnc(-c4cncc(CN5CCOCC5)c4)cc3C3(CC3)C2=O)c1F
3. COc1cc(OC)c(F)c(N2Cc3cnc(-c4cc(N)cnc4C)cc3C3(CC3)C2=O)c1F
4. COc1cc(OC)c(F)c(N2Cc3cnc(-c4cncc(N)c4)cc3C3(CC3)C2=O)c1F
5. COc1cc(OC)c(F)c(N2Cc3cnc(-c4cncc(C(=O)N5CCOCC5)c4)cc3C3(CC3)C2=O)c1F
6. COc1cc(OC)c(F)c(N2Cc3cnc(-c4cncc(N5CCOCC5)c4)cc3C3(CC3)C2=O)c1F

1: >10; 2: >10; 3: >10; 4: >5; 5: >10; 6: >50

Quick one: give me FGFR3/FGFR4 for each item below, same order please.
1. COc1cc(OC)c(F)c(N2Cc3cnc(-c4cncc(F)c4)cc3C3(CC3)C2=O)c1F
2. COc1cc(OC)c(F)c(N2Cc3cnc(-c4cncc(NS(C)(=O)=O)c4)cc3C3(CC3)C2=O)c1F
3. COc1cc(OC)c(F)c(N2Cc3cnc(-c4cncc(S(=O)(=O)N5CCOCC5)c4)cc3C3(CC3)C2=O)c1F
4. COc1cncc(-c2cc3c(cn2)CN(c2c(F)c(OC)cc(OC)c2F)C(=O)C32CC2)c1
5. COc1cc(OC)c(F)c(N2Cc3cnc(-c4cncc(-n5ccnc5)c4)cc3C3(CC3)C2=O)c1F

[">4", ">10", ">5", ">10", ">20"]

----------
Provide the recorded FGFR4/FGFR3 for the entries that follow.
- System: FGFR3 enzyme
- assayRemarks: FGFR Enzymatic Assay (FRET peptide phosphorylation), FGFR3
- Type: biochemical
- experimentalSetup: IC50 ratio showing FGFR3 selectivity; Table 2A, pre-incubated for 4 hours

COc1cc(OC)c(F)c(N2Cc3cnc(-c4cn(C)nc4C)cc3N(Cc3cc(C)on3)C2=O)c1F [Example 31] :: >10

# batch: return FGFR4/FGFR3 for each of the 3 compounds below
1. COc1cc(OC)c(F)c(N2Cc3cnc(-c4cn(C)nc4C)cc3N(CC3CC3)C2=O)c1F [Example 29]
2. COc1cc(OC)c(F)c(N2Cc3cnc(-c4cn(C)nc4C)cc3N(c3cncnc3)C2=O)c1F [Example 61]
3. COc1cc(OC)c(F)c(N2Cc3cnc(-c4cn(CCN5CCOCC5)nc4C)cc3C3(CC3)C2=O)c1F [Example 52]

>5
>5
>1

For each of the compounds below, note its FGFR4/FGFR3.
1. COc1cc(OC)c(F)c(N2Cc3cnc(-c4cn(C)nc4C)cc3N(c3ccc4ncsc4c3)C2=O)c1F [Example 41]
2. COc1cc(OC)c(F)c(N2Cc3cnc(-c4cn(C)nc4C)cc3N(c3cn[nH]c3)C2=O)c1F [Example 129]
3. COc1cc(OC)c(F)c(N2Cc3cnc(-c4cn(C)nc4C)cc3N(c3ccc(C#N)cn3)C2=O)c1F [Example 79]

1. >5
2. >10
3. >3

----------
- target: FGFR4 (Homo sapiens (Human))
- assayRemarks: FGFR Enzymatic Assay (FRET peptide phosphorylation), FGFR4
- Type: biochemical
- experimentalSetup: ratio of IC50 data showing FGFR4 selectivity; Table 4, pre-incubated for 5 to 10 minutes
experimentalEndpoint: FGFR2/FGFR4

COc1cc(OC)c(F)c(N2Cc3cnc(-c4cncc(Cl)c4)cc3C3(CC3)C2=O)c1F :: >20

Please state FGFR2/FGFR4 for every compound in the list that follows.
1. COc1cc(OC)c(F)c(N2Cc3cnc(-c4cncc(C#N)c4)cc3C3(CC3)C2=O)c1F
2. COc1cc(OC)c(F)c(N2Cc3cnc(-c4cc(N)cnc4C)cc3C3(CC3)C2=O)c1F
3. COc1cncc(-c2cc3c(cn2)CN(c2c(F)c(OC)cc(OC)c2F)C(=O)C32CC2)c1
4. COc1cc(OC)c(F)c(N2Cc3cnc(-c4cncc(-n5ccnc5)c4)cc3C3(CC3)C2=O)c1F
5. COc1cc(OC)c(F)c(N2Cc3cnc(-c4cncc(N5CCOCC5)c4)cc3C3(CC3)C2=O)c1F

[">10", ">10", ">10", ">25", ">100"]
